TARGET_UNDER_TEST: T1, TNFR1 (Homo sapiens, UniProt P19438)
T1 chain: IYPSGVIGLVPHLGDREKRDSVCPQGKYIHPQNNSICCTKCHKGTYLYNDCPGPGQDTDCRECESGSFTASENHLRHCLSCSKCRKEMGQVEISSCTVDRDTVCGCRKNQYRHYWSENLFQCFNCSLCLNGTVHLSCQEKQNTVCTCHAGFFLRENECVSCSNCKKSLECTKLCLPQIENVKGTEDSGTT
ASSAY_INFO: yeast display SC50
PROPERTY: apparent Kd (screen) (nM)
Respond numerically; units are nM and should not be typed.

The cases that follow already have their apparent Kd (screen) on record.
>>> readout_number("P32M (designed binder) MTLQELLREEALRRAEAEAFRYALELLAEKFMEQKEYLLDLAEEIESQIRSLSGVDVEDVRKFLDKEWAWVKELLAEHPAELAEVEAARAARLAELRAEVEAKVAA")
1.4
>>> readout_number("E58I (designed binder) MTLQELLREEALRRAEAEAFRYALELLAEKFPEQKEYLLDLAEEIESQIRSLSGVDVIDVRKFLDKEWAWVKELLAEHPAELAEVEAARAARLAELRAEVEAKVAA")
0.593
>>> readout_number("R97S (designed binder) MTLQELLREEALRRAEAEAFRYALELLAEKFPEQKEYLLDLAEEIESQIRSLSGVDVEDVRKFLDKEWAWVKELLAEHPAELAEVEAARAARLAELSAEVEAKVAA")
0.956

Task item: Tell me the measured apparent Kd (screen) of K103D (designed binder) MTLQELLREEALRRAEAEAFRYALELLAEKFPEQKEYLLDLAEEIESQIRSLSGVDVEDVRKFLDKEWAWVKELLAEHPAELAEVEAARAARLAELRAEVEADVAA , please.
Reply: 0.718
